Recorded values, source ChEMBL document CHEMBL4680201.

Target: EGFR (Epidermal growth factor receptor) (Homo sapiens, UniProt P00533)
Experiment: Inhibition of recombinant human GST-tagged EGFR (668 to 1210 residues) expressed in baculovirus expression system at 100 nM using Tyr04 peptide as substrate incubated for 1 hr by Z'lyte assay relative to control
Conditions: probe Tyr04 peptide
RECORDED METRIC: inhibition at 1 h, 0.1 µM (%)
Answers are plain numbers, in %.

[ask] For the molecule shown here, C=CC(=O)Nc1ccc(-c2ccnc(Nc3ccc(N4CCOCC4)cc3)n2)cc1 , give the reported inhibition at 1 h, 0.1 µM.
[reply] 1.2

###

Test: MRT (0 to infinity) in ICR mouse at 30 mg/kg, po administered as single dose via gavage by LC-MS/MS analysis
Format: ADME, organism-based
Conditions: in vivo
RECORDED METRIC: MRT inf (h)
One number for each entry, in h.

[ask] For the compound shown here, C=CC(=O)Nc1ccc(-c2ccnc(Nc3ccc(N4CCOCC4)cc3)n2)cc1 , give the reported MRT inf.
[reply] 1.42

###

Target: UniProtKB P07949
Sequence (P07949 whole entry, the tested form may be a part): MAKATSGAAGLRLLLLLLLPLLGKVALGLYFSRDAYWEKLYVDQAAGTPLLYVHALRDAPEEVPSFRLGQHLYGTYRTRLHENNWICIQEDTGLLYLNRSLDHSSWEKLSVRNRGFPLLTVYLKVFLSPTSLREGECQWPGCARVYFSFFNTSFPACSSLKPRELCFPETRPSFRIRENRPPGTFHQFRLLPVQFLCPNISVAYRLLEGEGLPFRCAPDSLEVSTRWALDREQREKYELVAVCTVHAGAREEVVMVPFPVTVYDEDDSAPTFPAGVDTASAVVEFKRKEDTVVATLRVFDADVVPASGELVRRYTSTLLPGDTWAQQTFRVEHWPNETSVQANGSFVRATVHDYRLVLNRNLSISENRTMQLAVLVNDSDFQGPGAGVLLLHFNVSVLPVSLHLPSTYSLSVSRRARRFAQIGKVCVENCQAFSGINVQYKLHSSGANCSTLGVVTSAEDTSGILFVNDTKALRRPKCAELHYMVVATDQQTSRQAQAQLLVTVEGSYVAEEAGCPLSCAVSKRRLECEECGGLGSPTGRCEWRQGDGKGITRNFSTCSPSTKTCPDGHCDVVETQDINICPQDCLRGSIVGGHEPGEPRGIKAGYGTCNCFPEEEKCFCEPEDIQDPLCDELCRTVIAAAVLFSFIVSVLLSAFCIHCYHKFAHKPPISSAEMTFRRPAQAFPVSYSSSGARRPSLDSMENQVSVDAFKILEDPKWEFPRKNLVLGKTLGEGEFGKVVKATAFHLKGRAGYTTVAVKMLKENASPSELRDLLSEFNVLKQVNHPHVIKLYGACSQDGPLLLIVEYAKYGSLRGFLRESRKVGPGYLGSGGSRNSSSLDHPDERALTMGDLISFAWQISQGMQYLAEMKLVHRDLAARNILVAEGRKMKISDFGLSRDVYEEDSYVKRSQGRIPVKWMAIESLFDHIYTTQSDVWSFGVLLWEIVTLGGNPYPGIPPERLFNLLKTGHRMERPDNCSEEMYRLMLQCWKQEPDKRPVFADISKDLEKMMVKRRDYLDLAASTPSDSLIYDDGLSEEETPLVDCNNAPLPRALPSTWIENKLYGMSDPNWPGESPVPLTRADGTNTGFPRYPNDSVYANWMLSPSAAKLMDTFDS
Test: Inhibition of recombinant human GST-tagged RET (658 to 1114 residues) expressed in baculovirus expression system at 100 nM using Tyr 02 as substrate incubated for 1 hr in presence of ATP by Z'-LYTE assay relative to control
Settings: probe Tyr 02
RECORDED METRIC: inhibition at 1 h, 0.1 µM
Quick note: number first, unit second.

[ask] For the molecule shown here, C=CC(=O)Nc1ccc(-c2ccnc(Nc3ccc(N4CCOCC4)cc3)n2)cc1 , give the reported inhibition at 1 h, 0.1 µM.
[reply] 2.9%

###

Hi there, I'd appreciate the recorded IC50 for every entry that follows.
Molecular target: Non-receptor tyrosine-protein kinase TYK2 (Homo sapiens, UniProt P29597)
Sequence (P29597 whole entry, the tested form may be a part): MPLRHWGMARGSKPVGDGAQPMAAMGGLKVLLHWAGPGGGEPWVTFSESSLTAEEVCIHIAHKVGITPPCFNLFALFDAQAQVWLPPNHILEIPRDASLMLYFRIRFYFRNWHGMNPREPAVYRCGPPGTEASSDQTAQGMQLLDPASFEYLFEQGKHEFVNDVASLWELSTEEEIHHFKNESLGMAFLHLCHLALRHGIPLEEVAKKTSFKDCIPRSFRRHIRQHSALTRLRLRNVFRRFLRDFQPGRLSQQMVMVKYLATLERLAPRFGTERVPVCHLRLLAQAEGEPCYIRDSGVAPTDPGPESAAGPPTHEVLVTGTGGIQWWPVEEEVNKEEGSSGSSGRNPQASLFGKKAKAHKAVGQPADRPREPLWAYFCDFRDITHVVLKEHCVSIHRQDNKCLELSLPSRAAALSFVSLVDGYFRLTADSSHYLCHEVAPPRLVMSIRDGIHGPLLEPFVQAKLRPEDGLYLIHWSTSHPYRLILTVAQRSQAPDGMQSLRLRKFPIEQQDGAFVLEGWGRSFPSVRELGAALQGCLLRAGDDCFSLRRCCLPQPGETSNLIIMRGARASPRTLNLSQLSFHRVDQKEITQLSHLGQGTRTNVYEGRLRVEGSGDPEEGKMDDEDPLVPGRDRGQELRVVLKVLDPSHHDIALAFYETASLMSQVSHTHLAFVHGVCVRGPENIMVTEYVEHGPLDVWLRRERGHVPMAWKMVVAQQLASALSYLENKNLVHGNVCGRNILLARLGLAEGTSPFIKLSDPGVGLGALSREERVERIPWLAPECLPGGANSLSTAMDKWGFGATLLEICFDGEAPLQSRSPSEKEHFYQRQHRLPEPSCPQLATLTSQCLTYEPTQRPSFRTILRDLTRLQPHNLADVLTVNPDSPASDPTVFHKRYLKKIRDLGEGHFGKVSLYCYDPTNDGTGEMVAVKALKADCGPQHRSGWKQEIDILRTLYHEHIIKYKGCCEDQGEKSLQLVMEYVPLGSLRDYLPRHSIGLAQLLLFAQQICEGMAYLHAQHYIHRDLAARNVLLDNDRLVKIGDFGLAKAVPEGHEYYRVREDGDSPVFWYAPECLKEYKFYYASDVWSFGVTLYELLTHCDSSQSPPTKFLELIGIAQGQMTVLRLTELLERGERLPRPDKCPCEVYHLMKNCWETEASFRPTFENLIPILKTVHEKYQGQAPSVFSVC
Assay: Inhibition of recombinant human N-terminal GST-tagged TYK2 cytoplasmic domain (833 to 1187 residues) expressed in baculovirus expression system using TK-substrate-biotin preincubated for 5 mins followed by substrate addition and measured after 30 mins by HTRF assay
Give bare numbers, in nM.

Study these solved cases before continuing.
COCCn1cc(Nc2nccc(-c3ccc(NC(=O)CC#N)cc3)n2)cn1 = 2500
COCCn1cc(Nc2cc(-c3ccc(NC(=O)CC#N)cc3)ncn2)cn1 = 1870
C/C=C/C(=O)Nc1cccc(-c2ccnc(Nc3ccc(N4CCOCC4)cc3)n2)c1 = 2650
C=CC(=O)Nc1ccc(-c2ccnc(Nc3ccc(N4CCOCC4)cc3)n2)cc1 = 2780

Below are 3 compounds. Give each one its IC50.
1. C=CC(=O)Nc1cccc(-c2ccnc(Nc3cnn(CCOC)c3)n2)c1
2. C=CC(=O)Nc1cccc(-c2ccnc(Nc3ccc(N4CCOCC4)cc3)n2)c1
3. COCCn1cc(Nc2cc(-c3cccc(NC(=O)CC#N)c3)ncn2)cn1

[reply]
1. 2870
2. 2440
3. 2260

###

Target: BMX (Cytoplasmic tyrosine-protein kinase BMX) (Homo sapiens, UniProt P51813)
Sequence (P51813 whole entry): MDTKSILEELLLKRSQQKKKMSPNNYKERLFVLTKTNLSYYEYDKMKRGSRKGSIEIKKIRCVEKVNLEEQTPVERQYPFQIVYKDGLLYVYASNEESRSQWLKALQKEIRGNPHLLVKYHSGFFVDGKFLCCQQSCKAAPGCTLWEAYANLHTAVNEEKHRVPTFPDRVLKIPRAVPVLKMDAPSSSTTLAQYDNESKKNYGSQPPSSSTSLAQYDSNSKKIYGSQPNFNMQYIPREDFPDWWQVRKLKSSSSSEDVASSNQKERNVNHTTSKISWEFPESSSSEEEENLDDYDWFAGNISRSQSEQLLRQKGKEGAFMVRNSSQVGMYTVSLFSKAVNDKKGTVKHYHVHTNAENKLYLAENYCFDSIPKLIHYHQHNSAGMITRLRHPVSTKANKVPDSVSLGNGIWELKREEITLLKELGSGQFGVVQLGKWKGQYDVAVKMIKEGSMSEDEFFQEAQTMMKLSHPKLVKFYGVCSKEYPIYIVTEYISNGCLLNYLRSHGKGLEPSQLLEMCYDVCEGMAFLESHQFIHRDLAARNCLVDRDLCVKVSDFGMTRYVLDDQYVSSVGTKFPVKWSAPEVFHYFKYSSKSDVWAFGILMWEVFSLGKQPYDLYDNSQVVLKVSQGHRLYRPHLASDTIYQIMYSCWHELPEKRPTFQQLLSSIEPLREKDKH
Assay: Inhibition of recombinant human His-tagged full length BMX expressed in baculovirus expression system at 100 nM using Tyr 01 as substrate incubated for 60 mins by Z'-Lyte assay relative to control
Details: probe Tyr 01
RECORDED METRIC: inhibition at 1 h, 0.1 µM (%)
Give bare numbers, in %.

[ask] For the compound shown here, C=CC(=O)Nc1ccc(-c2ccnc(Nc3ccc(N4CCOCC4)cc3)n2)cc1 , give the reported inhibition at 1 h, 0.1 µM.
[reply] 3.7

###

Assay: AUC (0 to t) in ICR mouse at 30 mg/kg, po administered as single dose via gavage by LC-MS/MS analysis
Type: ADME, organism-based
Design: dose 30 mg/kg
Settings: in vivo
RECORDED METRIC: AUC(0-t)
Quick note: number first, unit second.

[ask] For the compound shown here, C=CC(=O)Nc1ccc(-c2ccnc(Nc3ccc(N4CCOCC4)cc3)n2)cc1 , give the reported AUC(0-t).
[reply] 889 ng·h/mL

###

Molecular target: Tyrosine-protein kinase JAK2 (Homo sapiens, UniProt O60674)
Format: ADME
Kindly apply the following: Fulfilled if IC50 is less than 2 µM, Not fulfilled in every other case.

These solved cases illustrate the format of a correct answer.
C/C=C/C(=O)Nc1cccc(-c2cc(Nc3cnn(CCN(C)C)c3)ncn2)c1 = Fulfilled
C=CC(=O)Nc1cccc(-c2ccnc(Nc3ccc(N4CCOCC4)cc3)n2)c1 = Fulfilled
C/C=C/C(=O)Nc1cccc(-c2ccnc(Nc3ccc(N4CCOCC4)cc3)n2)c1 = Not fulfilled

[ask] Given COCCn1cc(Nc2cc(-c3ccc(NC(=O)CC#N)cc3)ncn2)cn1 , is recorded IC50 strictly lower than 2 µM?
[reply] Fulfilled

[ask] Continue with Cn1cc(Nc2cc(-c3cccc(NC(=O)CNC(=O)CC#N)c3)ncn2)cn1
[reply] Fulfilled

[ask] Continue with C/C=C/C(=O)Nc1ccc(-c2cc(Nc3ccc(N4CCOCC4)cc3)ncn2)cc1
[reply] Not fulfilled

[ask] Continue with C=CC(=O)Nc1cccc(-c2cc(Nc3cnn(CCO)c3)ncn2)c1
[reply] Not fulfilled

###

Target: Tyrosine-protein kinase JAK1 (Homo sapiens, UniProt P23458)
Sequence (P23458 whole entry, the tested form may be a part): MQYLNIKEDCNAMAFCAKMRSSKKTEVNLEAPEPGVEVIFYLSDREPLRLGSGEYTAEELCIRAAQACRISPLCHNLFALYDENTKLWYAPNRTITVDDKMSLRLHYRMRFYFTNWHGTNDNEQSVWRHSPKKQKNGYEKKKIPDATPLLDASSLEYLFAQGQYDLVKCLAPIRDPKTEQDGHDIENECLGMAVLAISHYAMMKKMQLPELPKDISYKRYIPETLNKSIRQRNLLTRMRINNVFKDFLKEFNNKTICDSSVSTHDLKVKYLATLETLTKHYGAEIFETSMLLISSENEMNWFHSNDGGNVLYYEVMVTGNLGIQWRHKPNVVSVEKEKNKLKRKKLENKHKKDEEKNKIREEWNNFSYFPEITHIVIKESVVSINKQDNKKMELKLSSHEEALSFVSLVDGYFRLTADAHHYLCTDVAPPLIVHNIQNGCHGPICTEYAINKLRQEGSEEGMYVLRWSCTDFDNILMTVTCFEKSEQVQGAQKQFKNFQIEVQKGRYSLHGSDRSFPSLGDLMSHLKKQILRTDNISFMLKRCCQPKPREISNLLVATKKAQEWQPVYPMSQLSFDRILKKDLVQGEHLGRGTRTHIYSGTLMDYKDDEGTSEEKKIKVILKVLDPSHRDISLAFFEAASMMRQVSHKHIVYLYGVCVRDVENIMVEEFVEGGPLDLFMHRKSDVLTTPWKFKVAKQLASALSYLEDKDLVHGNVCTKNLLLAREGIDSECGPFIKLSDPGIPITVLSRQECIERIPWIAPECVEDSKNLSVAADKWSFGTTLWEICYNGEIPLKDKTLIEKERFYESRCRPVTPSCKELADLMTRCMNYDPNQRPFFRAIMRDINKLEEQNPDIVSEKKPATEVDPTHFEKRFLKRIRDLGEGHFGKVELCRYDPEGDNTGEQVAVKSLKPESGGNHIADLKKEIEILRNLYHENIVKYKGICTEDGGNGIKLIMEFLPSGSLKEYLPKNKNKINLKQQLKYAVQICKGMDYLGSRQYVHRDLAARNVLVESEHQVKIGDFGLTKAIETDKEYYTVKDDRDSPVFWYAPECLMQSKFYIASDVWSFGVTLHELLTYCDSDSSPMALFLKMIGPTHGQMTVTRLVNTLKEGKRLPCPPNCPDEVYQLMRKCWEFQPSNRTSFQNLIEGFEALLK
Experiment: Inhibition of recombinant human GST-tagged JAK1 cytoplasmic domain (866 to 1154 residues) expressed in baculovirus expression system using TK-substrate-biotin preincubated for 5 mins followed by substrate addition and measured after 30 mins by HTRF assay
Hi there, I'd appreciate the recorded pIC50 for every entry that follows.
Numbers only, as −log10 of the molar value.

Study these solved cases before continuing.
C/C=C/C(=O)Nc1cccc(-c2cc(Nc3cnn(CCO)c3)ncn2)c1 = 5.61
N#CCC(=O)Nc1cccc(-c2ccnc(Nc3ccc(N4CCOCC4)cc3)n2)c1 = 5.65
C/C=C/C(=O)Nc1ccc(-c2cc(Nc3ccc(N4CCOCC4)cc3)ncn2)cc1 = 6.49
C=CC(=O)Nc1cccc(-c2cc(Nc3cnn(CCN(C)C)c3)ncn2)c1 = 6.14
Cn1cc(Nc2cc(-c3cccc(NC(=O)CNC(=O)CC#N)c3)ncn2)cn1 = 7.05

Below are 2 compounds. Give each one its pIC50.
1. C=CC(=O)Nc1cccc(-c2cc(Nc3cnn(CC(=O)NC)c3)ncn2)c1
2. C=CC(=O)Nc1cccc(-c2ccnc(Nc3cnn(CCOC)c3)n2)c1

[reply]
[6.08, 5.96]

Below are 4 compounds. Give each one its pIC50.
1. COCCn1cc(Nc2nccc(-c3ccc(NC(=O)CC#N)cc3)n2)cn1
2. C=CC(=O)Nc1cccc(-c2cc(Nc3ccc(N4CCOCC4)cc3)ncn2)c1
3. COCCn1cc(Nc2cc(-c3ccc(NC(=O)CC#N)cc3)ncn2)cn1
4. N#CCC(=O)Nc1cccc(-c2cc(Nc3cnn(CCO)c3)ncn2)c1

[reply]
1: 6.74; 2: 5.96; 3: 5.57; 4: 5.81

###

Molecular target: BLK (Tyrosine-protein kinase Blk) (Homo sapiens)
Sequence (P51451 whole entry): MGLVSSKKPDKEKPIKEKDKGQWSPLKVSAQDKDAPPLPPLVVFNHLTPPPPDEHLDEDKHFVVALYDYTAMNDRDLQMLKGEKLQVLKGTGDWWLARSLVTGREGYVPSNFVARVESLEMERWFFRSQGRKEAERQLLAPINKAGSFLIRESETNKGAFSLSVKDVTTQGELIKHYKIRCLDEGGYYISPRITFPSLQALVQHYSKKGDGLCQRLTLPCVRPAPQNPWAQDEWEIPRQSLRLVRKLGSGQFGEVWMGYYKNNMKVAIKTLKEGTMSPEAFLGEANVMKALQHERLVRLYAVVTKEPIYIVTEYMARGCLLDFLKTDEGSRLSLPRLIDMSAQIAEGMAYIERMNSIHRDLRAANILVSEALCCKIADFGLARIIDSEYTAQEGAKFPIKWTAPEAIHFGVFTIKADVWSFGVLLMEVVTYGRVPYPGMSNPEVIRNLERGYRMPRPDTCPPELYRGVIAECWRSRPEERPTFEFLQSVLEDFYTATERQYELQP
Test: Inhibition of recombinant human His-tagged full length BLK expressed in baculovirus expression system at 100 nM using Tyr01 peptide as substrate incubated for 1 hr in presence of ATP by Z'-LYTE assay relative to control
Details: probe Tyr01 peptide
RECORDED METRIC: inhibition at 1 h, 0.1 µM (%)
One number for each entry, in %.

[ask] For the molecule shown here, C=CC(=O)Nc1ccc(-c2ccnc(Nc3ccc(N4CCOCC4)cc3)n2)cc1 , give the reported inhibition at 1 h, 0.1 µM.
[reply] 20.6

###

Target: Tyrosine-protein kinase JAK1 (Homo sapiens, UniProt P23458)
Experiment: Inhibition of recombinant human GST-tagged JAK1 cytoplasmic domain (866 to 1154 residues) expressed in baculovirus expression system using TK-substrate-biotin preincubated for 5 mins followed by substrate addition and measured after 30 mins by HTRF assay
Kindly apply the following: satisfied if IC50 is less than 500 nM, not satisfied in every other case.

C=CC(=O)NCC(=O)Nc1cccc(-c2cc(Nc3cnn(CCOC)c3)ncn2)c1 = satisfied
C/C=C/C(=O)Nc1cccc(-c2cc(Nc3cnn(CCN(C)C)c3)ncn2)c1 = not satisfied
CNC(=O)Cn1cc(Nc2cc(-c3cccc(NC(=O)CNC(=O)CC#N)c3)ncn2)cn1 = not satisfied
C=CC(=O)Nc1ccc(-c2ccnc(Nc3cnn(CCOC)c3)n2)cc1 = not satisfied
COCCn1cc(Nc2cc(-c3cccc(NC(=O)CC#N)c3)ncn2)cn1 = satisfied

[ask] Given C/C=C/C(=O)Nc1ccc(-c2ccnc(Nc3ccc(N4CCOCC4)cc3)n2)cc1 , is recorded IC50 strictly lower than 500 nM?
[reply] not satisfied

[ask] Continue with C/C=C/C(=O)NCC(=O)Nc1cccc(-c2cc(Nc3ccc(N4CCOCC4)cc3)ncn2)c1
[reply] not satisfied

[ask] Continue with N#CCC(=O)Nc1cccc(-c2cc(Nc3ccc(N4CCOCC4)cc3)ncn2)c1
[reply] not satisfied

[ask] Continue with C/C=C/C(=O)Nc1ccc(-c2cc(Nc3cnn(CCOC)c3)ncn2)cc1
[reply] not satisfied

[ask] Continue with N#CCC(=O)Nc1ccc(-c2cc(Nc3ccc(N4CCOCC4)cc3)ncn2)cc1
[reply] not satisfied
